Attribution: ChEMBL document CHEMBL1773006

# reported IC50; entries follow
- measurementDescription: Inhibition of Plasmodium falciparum falcipain 2 assessed as benzyloxycarbonyl-Phe-Leu-7-amino-4-methylcoumarin substrate hydrolysis after 30 mins by spectrofluorometry analysis
assayMetric: IC50

[[record]]
compound = "COc1ccc(C(=O)/C=C/c2ccc(OCCN3CCN(c4ccnc5cc(Cl)ccc45)CC3)c(OC)c2)c(OC)c1"
reportedresult = "11.7 µM"

[[record]]
compound = "COc1ccc(C(=O)/C=C/c2ccc(O)c(OC)c2)c(OC)c1"
reportedresult = "> 50 µM"

[[record]]
compound = "OCCN1CCN(c2ccnc3cc(Cl)ccc23)CC1"
reportedresult = "> 50 µM"

[[record]]
compound = "OCCNc1ccnc2cc(Cl)ccc12"
reportedresult = "> 50 µM"

[[record]]
compound = "COc1ccc(C(=O)/C=C/c2ccc(O)c(CN3CCN(c4ccnc5cc(Cl)ccc45)CC3)c2)c(OC)c1"
reportedresult = "10 µM"

[[record]]
compound = "COc1ccc(C(=O)/C=C/c2cc(CN3CCN(c4ccnc5cc(Cl)ccc45)CC3)c(O)c(OC)c2)c(OC)c1"
reportedresult = "9.1 µM"

[[record]]
compound = "CC(=O)/C=C/c1ccc(O)c(CN2CCN(c3ccnc4cc(Cl)ccc34)CC2)c1"
reportedresult = "29.9 µM"

[[record]]
compound = "COc1cc(/C=C/C(C)=O)ccc1OCCN1CCN(c2ccnc3cc(Cl)ccc23)CC1"
reportedresult = "> 50 µM"

[[record]]
compound = "Clc1ccc2c(N3CCNCC3)ccnc2c1"
reportedresult = "> 50 µM"

[[record]]
compound = "CC(=O)/C=C/c1ccc(O)cc1"
reportedresult = "> 50 µM"

[[record]]
compound = "COc1ccc(C(=O)/C=C/c2ccc(OCCNc3ccnc4cc(Cl)ccc34)c(OC)c2)c(OC)c1"
reportedresult = "22.9 µM"

[[record]]
compound = "COc1cc(/C=C/C(C)=O)ccc1OCCNc1ccnc2cc(Cl)ccc12"
reportedresult = "> 50 µM"

[[record]]
compound = "COc1cc(/C=C/C(C)=O)cc(CN2CCN(c3ccnc4cc(Cl)ccc34)CC2)c1O"
reportedresult = "> 50 µM"

[[record]]
compound = "COc1ccc(C(=O)/C=C/c2ccc(O)cc2)c(OC)c1"
reportedresult = "> 50 µM"

[[record]]
compound = "COc1ccc(C(=O)/C=C/c2ccc(OCc3cn(-c4ccnc5cc(Cl)ccc45)nn3)c(OC)c2)c(OC)c1"
reportedresult = "10.8 µM"

[[record]]
compound = "CC(C)C[C@H](NC(=O)[C@H]1O[C@@H]1C(=O)O)C(=O)NCCCCN=C(N)N [E-64]"
reportedresult = "0.055 µM"

